Tested on: human PKK mRNA
Assay: Dose-dependent antisense inhibition of human PKK in HepaRG cells, 0.12-10.00 uM (Example 4)
Assay type: cell-based
Settings: Table 33, 3.33 μM, electroporation, ~16 h
Strand notation (5' to 3'): a small letter for the sugar, then the base; units joined by * are phosphorothioate-linked, units joined directly phosphodiester-linked; [ ] holds rarer units or linkages, { } end groups; capitals alone tell only the bases. e = 2'-O-(2-methoxyethyl) (MOE); [5mC] = 5-methylcytosine; d = 2'-deoxy (DNA)
Entries and their measured percent inhibition of PKK at 3.33 μM follow.
# number only, unit % dropped from output

Study these solved cases before continuing.
Look up percent inhibition of PKK at 3.33 μM for this substance: 531232 (e[5mC]*eT*eG*eT*eA*d[5mC]*dT*dA*dG*dT*dT*dT*d[5mC]*d[5mC]*dT*eA*eT*eA*eA*e[5mC]; antisense) [compound 531232]
62

Look up percent inhibition of PKK at 3.33 μM for this substance: 531110 (antisense eG*e[5mC]*e[5mC]*eT*eG*dT*dT*dT*dG*dG*dT*dG*dG*dT*d[5mC]*eT*e[5mC]*eT*eT*e[5mC]) [compound 531110]
76

Look up percent inhibition of PKK at 3.33 μM for this substance: 531071 (e[5mC]*eT*eG*e[5mC]*eT*d[5mC]*dT*dG*dT*dG*dT*dT*dT*dT*d[5mC]*eT*e[5mC]*eT*eA*eA; antisense) [compound 531071]
83

Continuing:
Look up percent inhibition of PKK at 3.33 μM for this substance: 531055 (antisense e[5mC]*e[5mC]*e[5mC]*eT*eT*d[5mC]*dT*dT*dT*dA*dT*dA*dG*d[5mC]*d[5mC]*eA*eG*e[5mC]*eA*e[5mC]) [compound 531055]
76

Look up percent inhibition of PKK at 3.33 μM for this substance: 531069 (e[5mC]*e[5mC]*eA*eG*eT*d[5mC]*d[5mC]*dA*dT*dG*dT*dA*d[5mC]*dT*d[5mC]*eA*eG*e[5mC]*eG*eA; antisense) [compound 531069]
76

----------
System: human PKK mRNA
Assay: Dose-dependent antisense inhibition of human PKK in HepaRG cells, 0.12-10.00 uM (Example 4)
Format: cell-based
Conditions: Table 33, 10.00 μM, electroporation, ~16 h
Strand notation (5' to 3'): a small letter for the sugar, then the base; units joined by * are phosphorothioate-linked, units joined directly phosphodiester-linked; [ ] holds rarer units or linkages, { } end groups; capitals alone tell only the bases. e = 2'-O-(2-methoxyethyl) (MOE); [5mC] = 5-methylcytosine; d = 2'-deoxy (DNA)
Entries and their measured percent inhibition of PKK at 10.00 μM follow.
# number only, unit % dropped from output

Request body: readout percent inhibition of PKK at 10.00 μM, system human PKK mRNA, query 531069 (e[5mC]*e[5mC]*eA*eG*eT*d[5mC]*d[5mC]*dA*dT*dG*dT*dA*d[5mC]*dT*d[5mC]*eA*eG*e[5mC]*eG*eA; antisense) [compound 531069] . Return the value.
83

Continuing:
Request body: readout percent inhibition of PKK at 10.00 μM, system human PKK mRNA, query 531110 (antisense eG*e[5mC]*e[5mC]*eT*eG*dT*dT*dT*dG*dG*dT*dG*dG*dT*d[5mC]*eT*e[5mC]*eT*eT*e[5mC]) [compound 531110] . Return the value.
85

Request body: readout percent inhibition of PKK at 10.00 μM, system human PKK mRNA, query 531055 (antisense e[5mC]*e[5mC]*e[5mC]*eT*eT*d[5mC]*dT*dT*dT*dA*dT*dA*dG*d[5mC]*d[5mC]*eA*eG*e[5mC]*eA*e[5mC]) [compound 531055] . Return the value.
81

Request body: readout percent inhibition of PKK at 10.00 μM, system human PKK mRNA, query 531121 (antisense eT*eT*eG*eG*eT*d[5mC]*dT*dA*d[5mC]*dA*dG*dA*dT*dT*d[5mC]*eA*eA*eT*eG*e[5mC]) [compound 531121] . Return the value.
79

Request body: readout percent inhibition of PKK at 10.00 μM, system human PKK mRNA, query 531198 (eG*eG*eG*eA*eT*dT*dT*dT*dG*d[5mC]*dT*dG*dA*dA*dG*e[5mC]*eT*eG*eG*eT; antisense) [compound 531198] . Return the value.
60

----------
Tested on: human PKK mRNA
Assay: Dose-dependent antisense inhibition of human PKK in HepaRG cells, 0.12-10.00 uM (Example 4)
Type: cell-based
Conditions: Table 32, 3.33 μM, electroporation, ~16 h
Strand notation (5' to 3'): a small letter for the sugar, then the base; units joined by * are phosphorothioate-linked, units joined directly phosphodiester-linked; [ ] holds rarer units or linkages, { } end groups; capitals alone tell only the bases. e = 2'-O-(2-methoxyethyl) (MOE); [5mC] = 5-methylcytosine; d = 2'-deoxy (DNA)
percent inhibition of PKK at 3.33 μM of 70% or higher: 1. Under 70%: -1.

Example entries begin here.
Test whether the substance 530970 (antisense eT*eT*eG*eG*eT*dG*dT*dG*d[5mC]*d[5mC]*dA*d[5mC]*dT*dT*dT*e[5mC]*eA*eG*eA*eT) [compound 530970] records percent inhibition of PKK at 3.33 μM of 70% or higher.
1

Test whether the substance 531002 (eG*eA*eG*e[5mC]*eT*d[5mC]*d[5mC]*d[5mC]*dT*dT*dG*dT*dG*dT*d[5mC]*e[5mC]*e[5mC]*eA*eT*eA; antisense) [compound 531002] records percent inhibition of PKK at 3.33 μM of 70% or higher.
1

Test whether the substance 530967 (antisense e[5mC]*eA*eA*e[5mC]*e[5mC]*dA*dA*dT*dT*dT*d[5mC]*dT*dG*dA*dA*eA*eG*eG*eG*e[5mC]) [compound 530967] records percent inhibition of PKK at 3.33 μM of 70% or higher.
1

Test whether the substance 531005 (e[5mC]*eT*e[5mC]*eA*eA*dA*dG*dA*dG*dT*dA*dA*d[5mC]*d[5mC]*dA*eG*eA*eG*e[5mC]*eT; antisense) [compound 531005] records percent inhibition of PKK at 3.33 μM of 70% or higher.
1

Read the next record carefully.
Test whether the substance 530971 (antisense eG*eG*eA*eA*e[5mC]*dT*dT*dG*dG*dT*dG*dT*dG*d[5mC]*d[5mC]*eA*e[5mC]*eT*eT*eT) [compound 530971] records percent inhibition of PKK at 3.33 μM of 70% or higher.
-1

----------
System: human PKK mRNA
Experiment: Antisense inhibition of human PKK mRNA in HepaRG cells, 1,000 nM, MOE/deoxy/cEt oligonucleotides (Example 3)
Format: cell-based
Settings: HepaRG cells, 1,000 nM antisense oligonucleotide, Table 29
Strand notation (5' to 3'): a small letter for the sugar, then the base; units joined by * are phosphorothioate-linked, units joined directly phosphodiester-linked; [ ] holds rarer units or linkages, { } end groups; capitals alone tell only the bases. e = 2'-O-(2-methoxyethyl) (MOE); k = constrained ethyl (cEt); [5mC] = 5-methylcytosine; d = 2'-deoxy (DNA)
Entries and their measured % inhibition follow.
# number only, unit % dropped from output

Study these solved cases before continuing.
Look up % inhibition for this substance: 548597 (eT*eG*kA*dA*dT*dA*d[5mC]*d[5mC]*dA*dT*d[5mC]*d[5mC]*d[5mC]*k[5mC]*kG*e[5mC]; antisense) [compound 548597]
50

Look up % inhibition for this substance: 548562 (antisense eA*eG*kA*dT*dG*dA*d[5mC]*d[5mC]*dT*dG*d[5mC]*dA*dG*kA*kT*eG) [compound 548562]
50

Look up % inhibition for this substance: 548554 (antisense eG*eT*kG*d[5mC]*dT*dG*d[5mC]*dA*dT*dT*dG*d[5mC]*dA*kT*kG*eA) [compound 548554]
42

Continuing:
Look up % inhibition for this substance: 548553 (antisense e[5mC]*e[5mC]*k[5mC]*dG*dA*dA*dG*dA*dG*dT*d[5mC]*dA*dA*kG*kT*e[5mC]) [compound 548553]
46

Look up % inhibition for this substance: 548573 (e[5mC]*e[5mC]*kA*dG*dT*d[5mC]*dA*d[5mC]*d[5mC]*dA*d[5mC]*d[5mC]*dA*kT*kT*eG; antisense) [compound 548573]
65

Look up % inhibition for this substance: 548609 (antisense eG*eA*kT*d[5mC]*dG*dG*dT*dG*dG*dT*dG*dG*dG*kA*kT*eT) [compound 548609]
30

----------
Test system: human PKK mRNA
Test: Dose-dependent antisense inhibition of human PKK in HepaRG cells, 0.19-5.00 uM (Example 5)
Format: cell-based
Settings: 0.56 0μM, HepaRG cells, electroporation, approximately 16 hours; Table 41
Strand notation (5' to 3'): a small letter for the sugar, then the base; units joined by * are phosphorothioate-linked, units joined directly phosphodiester-linked; [ ] holds rarer units or linkages, { } end groups; capitals alone tell only the bases. e = 2'-O-(2-methoxyethyl) (MOE); [5mC] = 5-methylcytosine; d = 2'-deoxy (DNA)
quantity kind: percent inhibition of PKK at 0.56 0μM (%)
# number only, unit % dropped from output

Study these solved cases before continuing.
Look up percent inhibition of PKK at 0.56 0μM for this substance: 546825 (eG*eT*eA*eT*e[5mC]*dA*d[5mC]*dT*dG*dT*dA*d[5mC]*dT*dA*dG*eT*eT*eT*e[5mC]*e[5mC]; antisense) [compound 546825]
82

Look up percent inhibition of PKK at 0.56 0μM for this substance: 547602 (antisense eT*e[5mC]*eA*e[5mC]*eT*dG*dT*dA*d[5mC]*d[5mC]*dT*dA*dT*dA*dA*e[5mC]*eT*e[5mC]*eT*eA) [compound 547602]
9

Look up percent inhibition of PKK at 0.56 0μM for this substance: 531231 (eT*eA*eT*e[5mC]*eA*d[5mC]*dT*dG*dT*dA*d[5mC]*dT*dA*dG*dT*eT*eT*e[5mC]*e[5mC]*eT) [compound 531231]
55

Continuing:
Look up percent inhibition of PKK at 0.56 0μM for this substance: 546827 (e[5mC]*eA*eG*eT*eA*dT*d[5mC]*dA*d[5mC]*dT*dG*dT*dA*d[5mC]*dT*eA*eG*eT*eT*eT; antisense) [compound 546827]
74

Look up percent inhibition of PKK at 0.56 0μM for this substance: 546846 (e[5mC]*eT*eG*eT*e[5mC]*d[5mC]*dT*dA*dT*dA*dT*d[5mC]*dA*d[5mC]*dT*eG*eT*e[5mC]*e[5mC]*eT; antisense) [compound 546846]
49
